What half-life was measured for each of the following?
# method.description: Half life in rat at 2 mg/kg, iv
# Assay type: ADME, organism-based
# Parameters: dose 2 mg/kg, route intravenous
# stated.conditions: in vivo
Express your answer as a number followed by its unit.

Report half-life for each item below.
1. O=C(NCc1ccc(F)cc1)c1nc(N2CCCCS2(=O)=O)c2cccnc2c1O
2. CNC(=O)c1cc(F)ccc1CNC(=O)c1nc(N2CCCCS2(=O)=O)c2cccnc2c1O

Response line:
1: 1.2 h; 2: 1.2 h

====

# target.of.assay: UniProt:Q7ZJM1
# Sequence (Q7ZJM1 whole entry): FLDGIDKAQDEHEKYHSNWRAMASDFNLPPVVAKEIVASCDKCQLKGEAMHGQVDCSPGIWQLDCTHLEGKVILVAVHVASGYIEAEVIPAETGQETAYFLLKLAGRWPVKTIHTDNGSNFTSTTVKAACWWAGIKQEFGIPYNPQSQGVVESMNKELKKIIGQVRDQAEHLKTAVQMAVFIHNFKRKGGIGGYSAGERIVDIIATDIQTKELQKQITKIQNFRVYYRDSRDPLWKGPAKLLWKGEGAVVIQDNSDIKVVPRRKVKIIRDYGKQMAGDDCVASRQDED
# method.description: Inhibition of HIV1 recombinant integrase catalyzed strand transfer activity
measurement.kind: IC50 (nM)
One number for each entry, in nM.

# smiles.notation, target.of.assay, IC50 (nM)
rows = [
    ("CNC(=O)Cc1ccccc1CNC(=O)c1nc(N2CCCCS2(=O)=O)c2cccnc2c1O", "UniProt:Q7ZJM1", 7),
    ("CN(C)C(=O)c1cc(F)ccc1CNC(=O)c1nc(N2CCCCS2(=O)=O)c2cccnc2c1O", "UniProt:Q7ZJM1", 110),
    ("CN(C)S(=O)(=O)c1cc(F)ccc1CNC(=O)c1nc(N2CCCCS2(=O)=O)c2cccnc2c1O", "UniProt:Q7ZJM1", 30),
    ("CN(C)C(=O)Cc1ccccc1CNC(=O)c1nc(N2CCCCS2(=O)=O)c2cccnc2c1O", "UniProt:Q7ZJM1", 14),
    ("CNS(=O)(=O)c1cc(F)ccc1CNC(=O)c1nc(N2CCCCS2(=O)=O)c2cccnc2c1O", "UniProt:Q7ZJM1", 45),
]

Report IC50 for each item below.
1. O=C(NCc1ccccc1)c1nc(N2CCCCS2(=O)=O)c2cccnc2c1O
2. CNC(=O)c1cc(F)ccc1CNC(=O)c1nc(N2CCCCS2(=O)=O)c2cccnc2c1O
3. CNC(=O)c1cc(F)ccc1CNC(=O)c1ncc2cccnc2c1O

Response line:
1: 10; 2: 10; 3: 51

====

# method.description: Clearance in rat at 2 mg/kg, iv
# Assay type: ADME, organism-based
# Set-up: dose 2 mg/kg, route intravenous
# stated.conditions: in vivo
What clearance was measured for each of the following?
Answers are plain numbers, in L/h/kg.

# smiles.notation, units.symbol, clearance
records = [
    ("CNC(=O)c1cc(F)ccc1CNC(=O)c1nc(N2CCCCS2(=O)=O)c2cccnc2c1O", "L/h/kg", 0.516),
]

# next compound below
clearance for O=C(NCc1ccc(F)cc1)c1nc(N2CCCCS2(=O)=O)c2cccnc2c1O is 0.168

====

# method.description: Partition coefficient, log P at pH 7.4
# Type: physicochemical
# stated.conditions: octanol/water
measurement.kind: logD
Numbers only.

Some solved cases for reference:
# smiles.notation, logD
measured = [
    ("CNC(=O)Cc1ccccc1CNC(=O)c1nc(N2CCCCS2(=O)=O)c2cccnc2c1O", 1),
    ("CN(C)C(=O)c1cc(F)ccc1CNC(=O)c1nc(N2CCCCS2(=O)=O)c2cccnc2c1O", 1),
    ("CN(C)S(=O)(=O)c1cc(F)ccc1CNC(=O)c1nc(N2CCCCS2(=O)=O)c2cccnc2c1O", 1.9),
    ("CNC(=O)c1cc(F)ccc1CNC(=O)c1ncc2cccnc2c1O", 1.4),
    ("O=C(NCc1ccc(F)cc1)c1nc(N2CCCCS2(=O)=O)c2cccnc2c1O", 2.1),
    ("O=C(NCc1ccccc1)c1nc(N2CCCCS2(=O)=O)c2cccnc2c1O", 1.9),
    ("O=C(NCc1ccc(F)cc1)c1ncc2cccnc2c1O", 2.4),
    ("CN(C)C(=O)Cc1ccccc1CNC(=O)c1nc(N2CCCCS2(=O)=O)c2cccnc2c1O", 1),
    ("CNS(=O)(=O)c1cc(F)ccc1CNC(=O)c1nc(N2CCCCS2(=O)=O)c2cccnc2c1O", 1.9),
]

# next molecule below
logD for CNC(=O)c1cc(F)ccc1CNC(=O)c1nc(N2CCCCS2(=O)=O)c2cccnc2c1O is 1.6

====

# method.description: Oral bioavailability in dog at 1 mg/kg
# Format: ADME, organism-based, Canis lupus familiaris
# stated.conditions: in vivo
What bioavailability was measured for each of the following?

# smiles.notation, bioavailability
records = [
    ("O=C(NCc1ccc(F)cc1)c1nc(N2CCCCS2(=O)=O)c2cccnc2c1O", "24%"),
]

# next compound below
bioavailability for CNC(=O)c1cc(F)ccc1CNC(=O)c1nc(N2CCCCS2(=O)=O)c2cccnc2c1O is 65%

====

# method.description: Clearance in rhesus monkey at 1 mg/kg, iv
# Type: ADME, organism-based, Macaca mulatta
# Design: dose 1 mg/kg, route intravenous
# stated.conditions: in vivo
What clearance was measured for each of the following?

# smiles.notation, reported.measurement
rows = [
    ("CNC(=O)c1cc(F)ccc1CNC(=O)c1nc(N2CCCCS2(=O)=O)c2cccnc2c1O", "18.3 mL/min/kg"),
]

# next compound below
clearance for O=C(NCc1ccc(F)cc1)c1nc(N2CCCCS2(=O)=O)c2cccnc2c1O is 6.6 mL/min/kg

====

# Species on record: Homo sapiens
# method.description: Protein binding in human plasma by ultrafiltration method
# stated.conditions: read-out: PB (converted)
measurement.kind: fraction unbound
Answers are plain numbers.

Some solved cases for reference:
# smiles.notation, reported.measurement
data = [
    ("CN(C)C(=O)c1cc(F)ccc1CNC(=O)c1nc(N2CCCCS2(=O)=O)c2cccnc2c1O", 0.1),
    ("CNC(=O)c1cc(F)ccc1CNC(=O)c1nc(N2CCCCS2(=O)=O)c2cccnc2c1O", 0.08),
    ("CN(C)S(=O)(=O)c1cc(F)ccc1CNC(=O)c1nc(N2CCCCS2(=O)=O)c2cccnc2c1O", 0.03),
    ("CNS(=O)(=O)c1cc(F)ccc1CNC(=O)c1nc(N2CCCCS2(=O)=O)c2cccnc2c1O", 0.01),
    ("O=C(NCc1ccc(F)cc1)c1ncc2cccnc2c1O", 0.01),
]

Report fraction unbound for each item below.
1. CNC(=O)Cc1ccccc1CNC(=O)c1nc(N2CCCCS2(=O)=O)c2cccnc2c1O
2. CNC(=O)c1cc(F)ccc1CNC(=O)c1ncc2cccnc2c1O
3. CN(C)C(=O)Cc1ccccc1CNC(=O)c1nc(N2CCCCS2(=O)=O)c2cccnc2c1O

Response line:
1. 0.08
2. 0.02
3. 0.06

====

# method.description: Half life in dog at 1 mg/kg, iv
# Format: ADME, organism-based, Canis lupus familiaris
# Design: dose 1 mg/kg, route intravenous
# stated.conditions: in vivo
measurement.kind: half-life (h)
Numbers only, in h.

# smiles.notation, measurement.kind, reported.measurement
rows = [
    ("O=C(NCc1ccc(F)cc1)c1nc(N2CCCCS2(=O)=O)c2cccnc2c1O", "half-life", 2.9),
]

# next compound below
half-life for CNC(=O)c1cc(F)ccc1CNC(=O)c1nc(N2CCCCS2(=O)=O)c2cccnc2c1O is 1.8

====

# Test system: Human immunodeficiency virus 1
# method.description: Antiviral activity against HIV1 3B in MT4 cells assessed as decrease in HIV1 p24 core antigen in presence of normal human serum
# Format: functional
# stated.conditions: Human immunodeficiency virus 1, 3B
// thresholds for IC95 classes: lower band (below 100 nM), central band (100 nM to below 1000 nM), upper band (1000 nM or more)

Solved entries:
# smiles.notation, discrete.label
rows = [
    ("CNC(=O)c1cc(F)ccc1CNC(=O)c1nc(N2CCCCS2(=O)=O)c2cccnc2c1O", "lower band"),
    ("CNS(=O)(=O)c1cc(F)ccc1CNC(=O)c1nc(N2CCCCS2(=O)=O)c2cccnc2c1O", "central band"),
]

Prompt line: Assign a category based on measured IC95 for CN(C)C(=O)c1cc(F)ccc1CNC(=O)c1nc(N2CCCCS2(=O)=O)c2cccnc2c1O and give only the class name.
Response line: lower band

Prompt line: Assign a category based on measured IC95 for CNC(=O)c1cc(F)ccc1CNC(=O)c1ncc2cccnc2c1O and give only the class name.
Response line: upper band

Prompt line: Assign a category based on measured IC95 for CN(C)S(=O)(=O)c1cc(F)ccc1CNC(=O)c1nc(N2CCCCS2(=O)=O)c2cccnc2c1O and give only the class name.
Response line: lower band

Prompt line: Assign a category based on measured IC95 for CNC(=O)Cc1ccccc1CNC(=O)c1nc(N2CCCCS2(=O)=O)c2cccnc2c1O and give only the class name.
Response line: central band

Prompt line: Assign a category based on measured IC95 for O=C(NCc1ccc(F)cc1)c1ncc2cccnc2c1O and give only the class name.
Response line: upper band

====

# method.description: Oral bioavailability in rat at 10 mg/kg
# Format: ADME, organism-based
# stated.conditions: in vivo
measurement.kind: bioavailability (%)
Numbers only, in %.

# smiles.notation, bioavailability, %
measured = [
    ("O=C(NCc1ccc(F)cc1)c1nc(N2CCCCS2(=O)=O)c2cccnc2c1O", 41),
]

# next compound below
bioavailability for CNC(=O)c1cc(F)ccc1CNC(=O)c1nc(N2CCCCS2(=O)=O)c2cccnc2c1O is 45
